# Test system: NCI-H23 lung
# assay_name: NCI-60 one-dose screen, 48 h (100 = growth as untreated, 0 = no growth, -100 = all killed)
# details: 10 µM unless noted
The panel holds about 83,000 compounds, 20% with a hit somewhere; the sample as a whole holds those more often.
endpoint_name: growth (%)

> print(dat)
                              smiles.record  endpoint.name  test.value
1  CS(=O)(=O)c1ccc(-c2nc3cc(Cl)ccc3n2CC(=O)NO)cc1         growth        94.7
2        CCCc1nc2ccccn2c1Nc1ccc(C(=O)NO)cc1         growth        61.4
3  CN(C)c1ccc(/C=N/NC(=O)COc2cc(=O)n(C)c3ccccc23)cc1         growth        93.5
4   Cc1cc(-c2ccc(N(C)C)cc2)c2sc(=O)[nH]c2n1         growth        82.6
5        CCCCCCCCCCCCCCCCCC1=NCCN1C(=O)OCCO         growth        76.9
6          CC1(C)N=C(N)N=C(N)N1c1cccc(CN)c1         growth        93.2

Every entry's value here was drawn from PubChem BioAssay (NCI).
